Values were extracted from patent US20210330611A1.

test system: primary rat microglia; assay: Cell toxicity (dead cells, size <150 μm2) in coated fibrin (cFib) assay; settings: primary microglia HTS, fibrin stimulation; decreased size (<150 μm^2) as marker of toxicity;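 further: share of dead cells sized under 150 µm2 at 10 µM in fibrin-stimulated microglia HTS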
Structures can show the parent of a compound that is named as a salt.
VALUE_KIND: Fibrin % cell toxicity (%)
// return numeric value only (unit: %, not printed)

Look at this compound and give its reported Fibrin % cell toxicity. NC(=O)N1c2ccccc2CC(=O)c2ccccc21 [Oxcarbazepine, Trileptal]
1

Look at this compound and give its reported Fibrin % cell toxicity. CCOC(=O)[C@H](CCc1ccccc1)N[C@@H](C)C(=O)N1Cc2cc(OC)c(OC)cc2C[C@H]1C(=O)O [Moexipril]
1

Look at this compound and give its reported Fibrin % cell toxicity. CC(=O)Oc1ccccc1C(=O)Nc1ncc([N+](=O)[O-])s1 [Nitazoxanide]
1

Look at this compound and give its reported Fibrin % cell toxicity. CC(NCCC(c1ccccc1)c1ccccc1)c1ccccc1 (stereo not drawn) [Fendiline hydrochloride, reference compound]
1

Look at this compound and give its reported Fibrin % cell toxicity. CC(=O)OC[C@H]1O[C@@H]([S-])[C@H](OC(C)=O)[C@@H](OC(C)=O)[C@@H]1OC(C)=O.CCP(CC)CC.[Au+] [Auranofin]
94

Look at this compound and give its reported Fibrin % cell toxicity. CC[n+]1c(-c2ccccc2)c2cc(N)ccc2c2ccc(N)cc21 [Homidium Bromide]
17
